Would you kindly list IC50 (ng/ml), neutralization of RVFV-ZH501 for each of these binders?
System name: Gc of RVFV-ZH501 (Rift Valley Fever Virus strain ZH501)
Test description: cell-based or functional assay
A complete answer gives the number and then names the unit.

Worked examples follow.
RVFV-326 (antibody, V domains shown) VH: EAQLVESGGGLVKPGGSLRLSCAASGFSFSYAWMSWVRRLPGKGLEWVGRIKGKADGETTDYAAPVKGRFTISRDDSKTTVYLQMNTLKIEDTGVYYCTTDIGDFYDSIGYSYTDYWGQGTLVTVSS VL: EIVLTQSPATLSLSPGERATLSCRASQSVSSYLAWYQQKPGQAPRLLIYDASNRATGIPVRFSGSGSGTDFTLTISSLEPEDFALYYCQQRSDWPPTFGQGTKVEIK :: 1110 ng/mL
RVFV-250 (antibody, V domains shown) VH: QVQLQESGPGLAKPSETLSLTCTVSGGSISSYFWSWIRQPAGKGLEWIGRIHTTGSTNYNPSLKNRVIMSVDTSKNQFSLNLSSVTAADTAVYYCAREGTAFDIWGQGTMVTVSS VL: SYELTQSPSVSVSPGQTASIPCSGDKLGDKYACWYQQKPGQSPVLVIYQDTKRPSGIPERFSGSNSGNTATLTISETQAMDEADYYCQAWDSSTPWVFGGGTKLTVL :: 120 ng/mL

Let us move to another entry and its IC50 (ng/ml), neutralization of RVFV-ZH501.
Q) State the recorded IC50 (ng/ml), neutralization of RVFV-ZH501 for this entry: RVFV-249 (antibody, V domains shown) VH: QVLLVQSEAEVRKPGASVKISCKTSGYTFTTYFMHWVRQAPGQGLEWVAIVDPSTGNTGYAQRFQGRVTVTRDTSTGTLFMELTSLTTEDTAMYYCGRDRGSRAVDSWGQGTLVTVFS VL: QSVLTQPPSVSGAPGQRVTISCSGSSSNVGPNTVSWYQQLPGVAPKLLIYRNNQRPSGVPDRFSGSKFGTSASLVIGGLQSEDEADYYCAAWDDSLNGHMVFGGGTKVAVL
A) 30000 ng/mL
